Test: qHTS of pediatric cancer cell lines to identify multiple opportunities for drug repurposing: Primary screen for MG 63 (6-TG R) cells (AID 1347105); note: nearly all actives have a fitted effect of over 50% in size
Conditions: MG 63 (6-TG R) viability, CellTiter-Glo, 48 h; series mostly up to 46 µM
Results filed as inconclusive are left out. Calls of active or inactive are those of the source. Calls come from the whole dose curve; as a rule, active = well fitted cell-killing curve with a large enough effect; inconclusive = small, poorly fitted or top-dose-only effect; inactive = no such curve, though single readings can be large or run the other way.
Outcome codes: active, inactive

# Compound, Assigned Category
measured = [
    ("COc1cc(CC(C)N)cc2c1OCO2 (stereo not drawn)", "inactive"),
    ("CCOC(C(=O)OCCN(C)C)(c1ccccc1)c1ccccc1", "inactive"),
    ("OC(O)C(Cl)(Cl)Cl", "inactive"),
    ("CN(C)C(=S)SSC(=S)N(C)C", "active"),
    ("C[N+](C)(C)CCOC(=O)C(O)(c1ccccc1)c1ccccc1", "inactive"),
    ("CCN1CCCC1CNC(=O)C(O)(c1ccccc1)c1ccccc1 (stereo not drawn)", "inactive"),
    ("C[C@]12CC[C@H]3[C@@H](CCC4=CC(=O)CC[C@@H]43)[C@@H]1CC[C@@H]2O", "inactive"),
    ("Sc1ccccc1Cl", "inactive"),
]

----------
System: MKL-2
Assay: qHTS assay to identify novel small-molecules to repurpose for Merkel cell carcinoma treatment (AID 1296009); note: nearly all actives have a fitted effect of over 60% in size
Details: MCC and control cell lines, CellTiter-Glo viability, 72 h; series mostly up to 46 µM
Results filed as inconclusive are left out. Calls of active or inactive are those of the source. Calls follow the shape of the dose curve; as a rule, active = well fitted inhibition curve with a large enough effect; inconclusive = small, poorly fitted or top-dose-only effect; inactive = flat fitted curve, though single readings scatter.
Outcomes: YES for active, NO for inactive

# Compound, Assigned Category
data = [
    ("CN(C)CCc1c[nH]c2ccccc12", "NO"),
    ("CN(C)C(=O)Oc1cc(OC(=O)N(C)C)cc(C(O)CNC(C)(C)C)c1 (stereo not given)", "NO"),
    ("C[N+](C)(C)CCOC(=O)C(O)(c1ccccc1)c1ccccc1", "NO"),
    ("CC(C)NCC(O)c1ccc(N)c(C#N)c1 (stereo not given)", "NO"),
    ("COC(=O)C1=CCCN(C)C1", "NO"),
    ("COc1cc(C[C@@H](C)N)c(OC)cc1C", "NO"),
    ("N#Cc1nn(-c2c(Cl)cc(C(F)(F)F)cc2Cl)c(N)c1S(=O)C(F)(F)F (stereo not given)", "YES"),
    ("CCC(=O)OC1(c2ccccc2)CCN(C)CC1", "NO"),
    ("O=C(N[C@@H]1N=C(c2ccccc2F)c2cccc3c2N(CC3)C1=O)c1cc2ccccc2[nH]1", "NO"),
    ("C1CN2CCC1CC2", "NO"),
]

----------
Test: qHTS assay for environmental chemicals that activate the Aryl hydrocarbon Receptor (AhR) signaling pathway (AID 651777); note: % of control where 0% means no effect; nearly all actives have a fitted effect of over 15% in size
Details: 1A2-DRE human hepatoma cells, luciferase, 24 h; hits give high values
Records with an inconclusive call do not appear. The source made the active and inactive calls. Calls come from the whole dose curve; as a rule, active = well fitted activation curve with a large enough effect; inconclusive = small, poorly fitted or top-dose-only effect; inactive = flat fitted curve, though single readings scatter.

# Molecule, activation
measured = [
    ("C[C@H]1C(=O)O[C@@H]2CCN3CC=C(COC(=O)[C@](C)(O)[C@]1(C)O)[C@H]23", "-2.28% (inactive)"),
    ("CCOP(=S)(OCC)O/N=C(\\C#N)c1ccccc1", "9.33% (inactive)"),
    ("N#Cc1nn(-c2c(Cl)cc(C(F)(F)F)cc2Cl)c(N)c1S(=O)C(F)(F)F (stereo not drawn)", "2.36% (inactive)"),
    ("COCC(=O)N(c1c(C)cccc1C)C(C)C(=O)OC (stereo not drawn)", "3.48% (inactive)"),
    ("O=C(CCl)c1ccc(Cl)cc1Cl", "0.547% (inactive)"),
    ("COP(=O)(OC)OC=C(Cl)Cl", "2.56% (inactive) [middle of 4 runs]"),
    ("CC[n+]1c(-c2ccccc2)c2cc(N)ccc2c2ccc(N)cc21", "11.3% (inactive)"),
    ("CCNc1nc(Cl)nc(NCC)n1", "-1.55% (inactive)"),
]

Data provenance: PubChem BioAssay (NCATS)
